Target: JAK3 enzyme (Homo sapiens (Human))
Test: JAK Caliper Enzyme Assay at 4 μM or 1 mM ATP
Assay type: biochemical
Settings: read-out: JAK3 (4 μM ATP) IC50; 4 μM ATP
experimental.endpoint: IC50

{"molecule": "N#CCCc1c[nH]c2ncnc(N[C@@H]3CCCN(C(=O)/C=C/CO)C3)c12", "experimental.endpoint": "IC50", "meas.value": "> 10 µM"}
{"molecule": "C=CC(=O)N1CCC(Nc2cnc3[nH]cc(C(=O)NC4CCCC4(F)F)c3n2)CC1 (stereo not drawn)", "experimental.endpoint": "IC50", "meas.value": "< 0.0003 µM"}

Then this molecule:
Query (molecule): "C/C=C/C(=O)N1CCC[C@@H](Nc2ncnc3[nH]cc(C(=O)NCCOC)c23)C1" ; field requested: IC50
> 10 µM

###

Target: JAK3 enzyme (Homo sapiens (Human), UniProt P52333)
Sequence (P52333 whole entry, species assumed): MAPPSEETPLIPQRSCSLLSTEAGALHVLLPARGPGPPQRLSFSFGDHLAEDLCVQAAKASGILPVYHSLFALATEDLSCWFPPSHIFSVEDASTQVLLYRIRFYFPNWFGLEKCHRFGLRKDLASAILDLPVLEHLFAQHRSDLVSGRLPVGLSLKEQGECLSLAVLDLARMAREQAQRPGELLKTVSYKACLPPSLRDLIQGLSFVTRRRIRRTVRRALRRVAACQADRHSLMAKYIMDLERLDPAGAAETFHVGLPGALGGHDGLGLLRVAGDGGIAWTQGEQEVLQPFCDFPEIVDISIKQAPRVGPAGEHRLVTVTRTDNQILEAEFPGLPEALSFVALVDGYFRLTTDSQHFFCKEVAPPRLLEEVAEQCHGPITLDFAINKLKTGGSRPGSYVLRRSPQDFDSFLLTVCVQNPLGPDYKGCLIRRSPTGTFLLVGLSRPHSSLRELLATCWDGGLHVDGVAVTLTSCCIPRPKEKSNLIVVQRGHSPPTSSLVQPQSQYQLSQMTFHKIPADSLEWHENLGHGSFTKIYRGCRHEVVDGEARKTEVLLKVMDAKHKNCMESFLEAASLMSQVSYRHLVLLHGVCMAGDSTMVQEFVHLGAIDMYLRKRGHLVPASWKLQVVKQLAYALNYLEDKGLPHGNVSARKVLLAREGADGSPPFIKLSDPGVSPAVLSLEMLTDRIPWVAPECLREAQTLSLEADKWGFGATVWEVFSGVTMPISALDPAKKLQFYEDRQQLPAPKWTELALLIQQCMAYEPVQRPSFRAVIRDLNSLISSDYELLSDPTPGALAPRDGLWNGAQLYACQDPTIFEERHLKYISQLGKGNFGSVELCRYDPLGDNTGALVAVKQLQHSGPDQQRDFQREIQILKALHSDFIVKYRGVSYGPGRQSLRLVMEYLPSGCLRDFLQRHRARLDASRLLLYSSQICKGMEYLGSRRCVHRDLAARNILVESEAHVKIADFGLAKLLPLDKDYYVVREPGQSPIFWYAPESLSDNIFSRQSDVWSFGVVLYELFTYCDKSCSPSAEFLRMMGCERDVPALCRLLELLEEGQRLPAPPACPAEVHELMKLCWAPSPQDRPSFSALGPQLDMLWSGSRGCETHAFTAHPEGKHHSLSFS
Assay: JAK Caliper Enzyme Assay at 4 μM or 1 mM ATP
Assay type: biochemical
Conditions: read-out: JAK3 (4 μM ATP) IC50; 4 μM ATP
experimental.endpoint: IC50 (nM)

{"compound": "C=CC(=O)N1CCC(Nc2cnc3[nH]cc(C(=O)NCCOC)c3n2)CC1 [Example 275]", "unit.annotation": "nM", "IC50": 0.4}

[a] C=CC(=O)N1CCC(Nc2cnc3[nH]cc(-c4ccncc4F)c3n2)CC1 [Example 200]
[b] C=CC(=O)N1CCC(Nc2cnc3[nH]cc(C(=O)NCCC(F)(F)F)c3n2)CC1 [Example 246]
[c] C=CC(=O)N1CCC[C@@H](Nc2ncnc3[nH]cc(C(=O)N4CCCC4)c23)C1 [Example 146]
[d] C=CC(=O)N1CCC(Nc2cnc3[nH]cc(C(=O)NC4CCCC(F)(F)C4)c3n2)CC1 (centres unmarked) [Example 236]
In this exercise, place the 4 compounds in ascending sequence of their recorded IC50. I would appreciate it if you listed the labels in the requested order.
d, b, a, c

###

Target: JAK3 enzyme (Homo sapiens (Human))
Test: JAK Caliper Enzyme Assay at 4 μM or 1 mM ATP
Type: biochemical
Settings: read-out: JAK3 (4 μM ATP) IC50; 4 μM ATP
experimental.endpoint: IC50 (nM)

{"compound": "C=CC(=O)N1CCC(Oc2cnc3[nH]cc(-c4cnc(OC)nc4)c3n2)CC1 [Example 219]", "IC50 [nM]": 1.7}
{"compound": "C=CC(=O)N1C[C@@H](O)C[C@@H](Nc2ncnc3[nH]ccc23)C1 [Example 17]", "IC50 [nM]": 1.7}
{"compound": "C=CC(=O)N1CCC(Oc2cnc3[nH]cc(-c4cncc(C#N)c4)c3n2)CC1 [Example 225]", "IC50 [nM]": 1.4}

###

Molecular target: JAK3 enzyme (Homo sapiens (Human))
Assay: JAK Caliper Enzyme Assay at 4 μM or 1 mM ATP
Assay type: biochemical
Conditions: read-out: JAK3 (1 mM ATP) IC50; 1 mM ATP
experimental.endpoint: IC50 (nM)

A selection of reference data follows.
{"compound.structure.string": "C=CC(=O)N1CCC(Nc2cnc3[nH]cc(C(=O)N[C@H](C)CCC)c3n2)CC1", "system.tested": "JAK3 enzyme (Homo sapiens (Human))", "meas.value": 8.2}
{"compound.structure.string": "C=CC(=O)N1CCC(Nc2cnc3[nH]cc(C(=O)NCCCC(F)(F)F)c3n2)CC1", "system.tested": "JAK3 enzyme (Homo sapiens (Human))", "meas.value": 9.1}

[I] C=CC(=O)N1CCC(Nc2cnc3[nH]cc(C(=O)N[C@@H](C)COC)c3n2)CC1
[II] C=CC(=O)N1CCC(Nc2cnc3[nH]cc(-c4cccc(C(=O)NC)c4)c3n2)CC1
Among I and II , which shows a numerically higher IC50 result? Answer by quoting the chosen item's label.
II
(II: 49.3 nM, I: 6.6 nM)
